src = ChEMBL document CHEMBL1177702

- System: Liver microsomes
- assayProcedure: Metabolic stability in human liver microsomes assessed as hepatic extraction ratio
- Format: ADME, Microsome
- conditions: microsomes

{"columns": ["molecule", "ERH"],
 "data": [
  ["Cc1c[nH]c2ncnc(N3CCC(N)(CNc4ccccc4)C3)c12 (single isomer, unassigned; enantiomer 1)", 0.75]
]}

---

- assayProcedure: Cmax in dog at 1.2 mg/kg, iv
- Type: ADME, organism-based, Canis lupus familiaris
- Parameters: dose 1.2 mg/kg, route intravenous
- conditions: in vivo

{"columns": ["structureSmiles", "Cmax (ng/mL)"],
 "data": [
  ["CCc1c[nH]c2ncnc(N3CC[C@](N)(CNC(=O)c4ccc(F)cc4F)C3)c12", 602]
]}
